B1: TRIM39 (parent)
chain: YPCVLATEGFTSGRHYWEVEVGDK

variants of: B1; assay: protein stability index of a GFP-peptide fusion (GPS, HEK-293T) (PSI 1-6); higher = more stable; conditions: c terminus: a fixed tail appended;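 also: lentivirally expressed fusions sorted by FACS into six bins by GFP to DsRed ratio, PSI derived from sequencing read proportions per bin multiplied by bin number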
protein stability index of 2 or higher: 1. Under 2: 0.

Problem: Can "D23P" be said to have protein stability index at or above 2?
Result: 0

Problem: Record "K24S" ; criterion: protein stability index no lower than 2. Met?
Result: 0

Problem: Evaluate "Y1R" : protein stability index at minimum 2?
Result: 1

Origin of the recorded values: the supplement of paper PMC10567573
